TARGET_OF_ASSAY: cellular retinoic acid binding protein (CRABP) from chick embryo skin
MEASUREMENT_PROTOCOL: CRABP binding assay, I50 (dextran-coated charcoal)
CONDITION_PARAMETERS: 50% inhibition of binding of 100 pmoles [3H] retinoic acid to CRABP, chick embryo skin extract (1 mg protein); X=CO2H
Experimental: A standard in vitro cellular retinoic acid binding protein (CRABP) assay was also conducted on the retinoids. The CRABP binding study measured the ability of retinoids to compete for the retinoic acid binding site on CRABP, also a good indicator of retinoid potency as a chemopreventive agent. Aliquots (2 mg protein) of chick skin extracts were incubated with 300 pmoles of [^3 H] retinoic acid in the presence or absence of 100-fold molar excesses of the test compounds. […]
Measured pIC50 by item
Conceptually, pIC50 converts a concentration in mol/L into minus its log10.

CC1=C(C(C)C)/C(=C/C(C)=C/C=C/C(C)=C/C(=O)O)CCC1 [(all E)-7] :: 6.40

Entry CC1=C(C(C)C)/C(=C/C(C)=C/C=C/C(C)=C\C(=O)O)CCC1 [(13Z)-7] — recorded pIC50 = 6.30

Item: CC1=C(C(C)C)/C(=C/C(C)=C\C=C\C(C)=C\C(=O)O)CCC1 [(9Z)-7] | pIC50: 5.55

The compound listed as CC1=C(C(C)C)/C(=C/C(C)=C\C=C\C(C)=C/C(=O)O)CCC1 [(9Z,13Z)-7] has a reported pIC50 of 5.31

Sample CC1=C(/C=C/C(C)=C/C=C/C(C)=C/C(=O)O)C(C)(C)CCC1 [all-E retinoic acid, reference compound] ; pIC50 observed: 6.05

Value source: patent US5094783A
